Attribute: inhibition
- experimental-details: 384-well plate pilot, post-Golgi transport modulator project, inhibition of yeast transport mutant growth (AID 636)
- assay-context: absorbance 615 nm, about 18 h, stronger effect = higher value
A number alone suffices; assume %.

# compound, result
rows = [
    ("COC(=O)c1cn(C(=O)OC)c2ccccc12", -4.87),
    ("Cc1nn(Cc2ccc(C(=O)NC3CCCCC3)o2)c(C)c1Br", -3.29),
    ("O=C(NCCCCNC(=O)c1cccnc1)c1cccnc1", -0.52),
    ("CCOC(=O)C(NC(=O)c1ccc(OC)cc1)(N1CCOCC1)C(F)(F)F (stereo not drawn)", -4.81),
    ("COCCN1C(=O)C(=O)/C(=C(/O)c2ccc(OC(C)C)cc2)C1c1cccnc1 (stereo not drawn)", -3.55),
]

Request the reported inhibition associated with CCCCOc1ccc(-c2nnn(CC(=O)Nc3ncc(CC(=O)OCC)s3)n2)cc1 -7.11

Please answer likewise for Cc1nnc(SCc2cnc(-c3ccccc3)o2)[nH]c1=O 2.76

And CCOC(=O)c1c(NC(=O)CSc2nnc(-c3ccc(OC)cc3)o2)sc2c1CCC2 ? -0.26

Request: O=c1[nH]c2cccnc2n1Cc1ccco1 -4.32

Could you do the same for CC1CN(C(=O)c2cc3cc(Cl)cc(Cl)c3oc2=O)CC(C)O1 (stereo not drawn) , please? -3.47

* * *

- experimental-details: reversal of MRP1-mediated doxorubicin resistance, pilot screen, H69AR cells, doxorubicin co-treatment (AID 601)
- assay-context: H69AR cells + 2 uM doxorubicin, CellTiter-Glo, 72 h; measured here: viability with 2 uM doxorubicin; at 10 µM; stronger effect = lower value
With a cut-off of 90%, any viability strictly below it is called label 1; any viability meeting it or above is called label 0.

Reference set (2 entries):
# compound, assigned-label
data = [
    ("COc1ccc(NC(=O)Cn2nnc(-c3ccccc3N)n2)cc1OC", "label 0"),
    ("Cc1cccc(N2CCN(C(=O)CCn3c(=S)[nH]c4cc5c(cc4c3=O)OCO5)CC2C)c1 (stereo unspecified)", "label 1"),
]

For CCOCCCNC(=O)C1CCN(S(=O)(=O)N(CC(C)C)CC(C)C)CC1 , is the recorded viability below the cut-off of 90%? label 1

Now this one: CCOC(=O)CC1(CC(=O)OCC)NC(=O)c2c(C)sc(C(=O)OCC)c2N1 label 0

What about this compound? CCSc1ccccc1C(=O)Nc1cccc(OC)c1 label 1

And COc1cccc(C(=O)n2cnnc2N)c1OC ? label 1

Same lookup for CCn1c(=N)n(CC(O)c2ccco2)c2ccccc21 (stereo unspecified) , please. label 1

* * *

- experimental-details: growth suppression of yeast trafficking mutant, preliminary HTS, modulators of trafficking downstream of Golgi apparatus project, 1536-format plate, OD 615 nm (AID 637)
- assay-context: yeast transport mutant growth, absorbance 615 nm, 18 h; stronger effect = higher value
Entries annotated with measured inhibition
Answer with a number only, understood to be in %.

# compound, result
measured = [
    ("COc1ccc(NC(=O)CN2CCCCC2)cc1", -10),
]

Attention now shifts to the item below.
// returns reported inhibition for input COC(=O)c1cccc(NC(=O)NC2CCCN2S(=O)(=O)c2ccc(Cl)cc2)c1 (stereo not drawn) -7.05

* * *

- experimental-details: reversal of MRP1-mediated doxorubicin resistance, pilot screen, H69AR cells, doxorubicin co-treatment (AID 601)
- assay-context: H69AR cells, CellTiter-Glo, 72 h; compound alone cytotoxicity; at 10 µM
Binary call on viability with cut-off 90%: strictly below means YES, and equality or higher means NO.

# molecule, assigned-label
records = [
    ("COc1cc(-c2nnc(SCc3c(F)cccc3Cl)o2)cc(OC)c1OC", "YES"),
    ("COc1ccccc1NC(=O)NC1(C(=O)N2CCC(O)CC2)CCCCC1", "NO"),
    ("COc1ccc(C(=O)N2CCN(C3CCC(c4ccccc4)CC3)CC2)cc1OC (stereo unspecified)", "YES"),
    ("COc1ccc(N(CC(=O)NCCSC(C)(C)C)S(C)(=O)=O)c(OC)c1", "NO"),
    ("COC(=O)c1ccc(NC(=O)C(C)N2C(=O)c3ccccc3C2=O)cc1 (stereo unspecified)", "NO"),
]

Item O=C(N1CCCCCC1)N1CCN(C(=O)N2CCOCC2)CC1 : viability beneath 90%, strictly? NO

* * *

- experimental-details: 384-well plate pilot, post-Golgi transport modulator project, inhibition of yeast transport mutant growth (AID 636)
- assay-context: absorbance 615 nm, about 18 h, stronger effect = higher value
measurement-type: inhibition (%)
Answer in %, number only, no unit symbol.

Example compounds with recorded inhibition:
# compound, inhibition / %
data = [
    ("O=C(CSc1ncc(-c2ccc(F)cc2)[nH]1)N1CCCCC1", -2.95),
    ("CCOC(=O)c1[nH]cc(-c2ccccc2)c1N1CCOCC1", -2.5),
    ("CCC1(c2ccc(F)cc2)NC(=O)N(CC(=O)c2ccc[nH]2)C1=O (stereo unspecified)", -2.08),
    ("COc1ccc(-n2c(Cc3cccn3C)nnc2SCC(=O)Nc2cccc(C)c2C)cc1", -0.64),
    ("Cc1cccc(NC(=O)COc2ccc(Br)cc2)n1", -5.19),
    ("Cc1ccc(S(=O)(=O)Nc2nc3ccccc3nc2NCc2ccco2)cc1", -5.47),
    ("c1ccc(N2CCN(Cc3ccnc4ccccc34)CC2)cc1", -6.22),
    ("CCN(CCNC(=O)C1CCN(S(C)(=O)=O)CC1)c1ccccc1", -1.67),
]

Looking for the measured inhibition of O=C(Cc1ccccc1)N1CCCC(c2nc(-c3cccs3)no2)C1 (stereo unspecified) , can you help? -5.27

Another compound: CN(C)c1ccc(NC(=O)c2cc3c(=O)n4ccccc4nc3n2C)cc1 -0.54

Try this compound next: Cn1cc(C(=O)c2ccc(F)cc2)cc1-c1nc2ccccc2n1C -0.4

* * *

Below is a list of entries, each paired with its recorded viability value.
- experimental-details: reversal of MRP1-mediated doxorubicin resistance, pilot screen, H69AR cells, doxorubicin co-treatment (AID 601)
- assay-context: H69AR cells, CellTiter-Glo, 72 h; compound alone cytotoxicity; at 10 µM
Give just the numeric value; % need not be written.

# compound, viability / %
rows = [
    ("CCN1C(=O)OC2(CCCCC2)C1(C)O (configuration not stated)", 105),
]

Name the reported viability value associated with the compound C=CCn1c(SCC(=O)NC2CCCCC2)nnc1-c1sc(N)nc1C 95.8

Can you check CCOC(=O)N1CCC(O)(c2cc(C)c(C)cc2C)CC1 next? 99.4

* * *

- experimental-details: reducers of endogenous Her2 protein level, primary screen, SKBR3 breast tumor cells, AlphaScreen, ATP viability (AID 461);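 further: percent of carrier control wells set as 100% viability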
- assay-context: 18-24 h, measured here: SKBR3 viability, ATP luminescence, at 10 µM
measurement-type: viability

Fill in: viability of Cc1occc1-c1nnc(SCC(=O)c2ccc(F)cc2)n1Cc1ccco1 is ___ 77.5%

Can you handle CC(=O)N1CCN(Cc2ccc(Br)s2)CC1 next? 93.5%

Ok, now CCSCCNC(=O)c1cc(-n2cnnc2)ccc1Cl 138%

Also O=C(NCC1COCCO1)C1CCN(S(=O)(=O)c2ccccc2)CC1 (stereo unspecified) , if possible. 90%

Now this one: O=C(CN1CCCCCC1)OCCN=C1NS(=O)(=O)c2ccccc21 108%

Then Cn1c(=O)c2c(nc(NCCCO)n2CCc2ccccc2)n(C)c1=O ? 94%

Entry to check: O=C(NCC1COc2ccccc2O1)C1CCCN(S(=O)(=O)c2cnc[nH]2)C1 (stereo unspecified) 88%

Entry Cc1cc(=O)oc2ccc(OCC(=O)N3CCC(C)CC3)cc12 please 87%

Do the same for CCn1c(=S)sc2nc(C)sc21 please 94%

Record: Cc1cc(NC(=O)c2ccc3c(c2)C(=O)N(Cc2cccnc2)C3=O)no1 96.5%

Same again, this time with O=C(CSc1ncc(-c2ccc(F)cc2)[nH]1)N1CCCCC1 91%

* * *

- experimental-details: reversal of MRP1-mediated doxorubicin resistance, pilot screen, H69AR cells, doxorubicin co-treatment (AID 601)
- assay-context: H69AR cells + 2 uM doxorubicin, CellTiter-Glo, 72 h; measured here: viability with 2 uM doxorubicin; at 10 µM; stronger effect = lower value
Recorded measurements of viability, one per entry

# compound, viability
measured = [
    ("CC(=O)C1=C(O)C(=O)N(Cc2ccco2)C1c1ccc(F)cc1 (configuration not stated)", "100%"),
    ("COCCCNC(=O)CCc1nc2cccnc2n1Cc1ccc(OC)cc1", "94.3%"),
    ("O=C1OCCC1Sc1ncnc2sc3c(c12)CCC3 (configuration not stated)", "91.9%"),
    ("O=C(Nc1ccc(OC(=O)c2ccco2)cc1)c1ccco1", "95.7%"),
    ("Cc1cccc(N2CCN(C(=O)c3cc4c(=O)[nH]c5ccccc5c4n3C)CC2)c1C", "82.9%"),
]

# input compound: COc1ccccc1CC1(C)NC(=O)N(CC(=O)Nc2cc(C)on2)C1=O (configuration not stated) ; wanted: its viability 83.6%

// repeat for COc1ccc2nc(N3CCC(C)CC3)c(C#N)cc2c1 and report 23%

Field entry: CCc1nn2c(=O)cc(CSc3nc4sc5c(c4c(=O)n3C)CCCC5)nc2s1 89.6%

Try this compound next: COc1ccc(C)cc1NCc1cccc(OC)c1OC 109%

Now give it for CCC(c1nnc(SCC(=O)NCC2CCCO2)n1Cc1ccccc1)N(C)C (configuration not stated) too. 83.3%

Another compound to check: c1ccc(Oc2ccc(-n3cnnn3)cc2)cc1 78.8%

Moving on to the next compound: Nc1nnn(Cc2ccccc2)n1 97.3%

Now give it for COC(=O)CSc1nc2ncc(Cl)cc2[nH]1 too. 88.7%

# iterate: O=c1c2c(nc3nc(COc4ccccc4)[nH]n13)CCC2 90.2%

Next record, please: O=C(NCC1CCCO1)C1CCN(c2ccc(S(=O)(=O)N3CCCC3)cc2)CC1 (configuration not stated) 86%

Query CCOC(=O)c1c(NC(=O)c2ccn(CC)n2)sc2c1CCCC2 next 92.2%
